Each record here notes measured Inhibition rate.
Tested on: α-glucosidase
Assay: in vitro α-glucosidase inhibition test (pNPG substrate, OD 405 nm); combination index by Chou-Talalay method with CompuSyn
Assay type: biochemical, Saccharomyces cerevisiae
Settings: single compound, 1 μg/mL
Protocol: α-glucosidase (coming from Saccharomyces cerevisiae, Sigma); […] 40 μL α-glucosidase solution was accurately removed, 100 μL of sample solution to be tested was added respectively, reacted for 10 min at 37° C., then 60 μL of substrate p-nitrophenyl-α-D-glucopyranoside (pNPG) solution was added, reacted for 15 min at 37° C., and an enzyme-linked analyzer measured at a wavelength of 405 nm. […]
Write down the value, and be sure its unit follows.

Solved entries (count: 2):
Input: Return reported Inhibition rate for target or system α-glucosidase, item Oc1cc(O)c2cc(O)c(-c3cc(O)c(O)c(O)c3)[o+]c2c1.[Cl-] [Delphinidin] .
Output: 50.2 ± 4.3%

Input: Return reported Inhibition rate for target or system α-glucosidase, item O=c1c(O)c(-c2cc(O)c(O)c(O)c2)oc2cc(O)cc(O)c12 [Myricetin] .
Output: 41.2 ± 1.5%

Next:
Input: Return reported Inhibition rate for target or system α-glucosidase, item O=c1c(O)c(-c2ccc(O)cc2O)oc2cc(O)cc(O)c12 [Morin] .
Output: 41.2 ± 2.7%

Input: Return reported Inhibition rate for target or system α-glucosidase, item O=c1cc(-c2ccc(O)c(O)c2)oc2cc(O)cc(O)c12 [Luteolin] .
Output: 45.5 ± 2.7%

Sourced from patent US11753388B2
